Provenance of the data: patent US20240182445A1

target: human TREK-1 (Homo sapiens); construct: expressed in transfected cells; assay: TREK-1 Thallium (Tl+) flux assay, Method 1; format: cell-based; conditions: TREK-1 Thallium (Tl+) flux assay, Method 1
Sequence (O95069 whole entry): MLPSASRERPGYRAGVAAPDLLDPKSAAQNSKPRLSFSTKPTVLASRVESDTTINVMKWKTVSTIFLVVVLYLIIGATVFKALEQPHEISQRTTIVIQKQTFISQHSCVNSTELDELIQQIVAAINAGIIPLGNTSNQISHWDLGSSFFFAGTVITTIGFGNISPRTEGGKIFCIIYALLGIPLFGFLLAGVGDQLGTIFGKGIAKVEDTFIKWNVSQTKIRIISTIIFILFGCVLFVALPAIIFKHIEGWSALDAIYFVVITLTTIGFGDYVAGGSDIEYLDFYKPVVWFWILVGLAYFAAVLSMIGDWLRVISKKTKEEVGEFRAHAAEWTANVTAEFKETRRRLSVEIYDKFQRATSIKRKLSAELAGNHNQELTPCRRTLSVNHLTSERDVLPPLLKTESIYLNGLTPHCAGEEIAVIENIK
metric: pIC50
Please express pIC50 as -log10 of the molar concentration.

Reference set (3 entries):
{"compound": "Cc1cc(-c2ccc(C(F)(F)F)nc2)cnc1NC(=O)c1c(Cl)cnn1C1CCN(C(=O)OC(C)(C)C)CC1", "value_measured": 5.80}
{"compound": "CC(=O)N1CC2(CC(n3ncc(Cl)c3C(=O)Nc3ccc(OCc4ccccc4)cc3C)C2)C1", "value_measured": 5.16}
{"compound": "COc1ncc(-c2cnc(NC(=O)c3c(Cl)cnn3C3CCN(C(C)=O)CC3)c(C)c2)cc1Cl", "value_measured": 5.30}

// moving on: another record for pIC50
Input: Dear colleague, please send me the reported pIC50 for CCC(=O)N1CCOC(Cn2ncc(Cl)c2C(=O)Nc2ccc(OCc3ccccc3)cc2C)C1 (stereo not shown) when you can.
Output: 5.09
